This collection of values is drawn from patent US9242987B2.

Here, each record is paired with measured pIC50 data.
# tested on: JAK2 (Homo sapiens, UniProt O60674)
# Construct: endogenous in cells
# Sequence (O60674 whole entry): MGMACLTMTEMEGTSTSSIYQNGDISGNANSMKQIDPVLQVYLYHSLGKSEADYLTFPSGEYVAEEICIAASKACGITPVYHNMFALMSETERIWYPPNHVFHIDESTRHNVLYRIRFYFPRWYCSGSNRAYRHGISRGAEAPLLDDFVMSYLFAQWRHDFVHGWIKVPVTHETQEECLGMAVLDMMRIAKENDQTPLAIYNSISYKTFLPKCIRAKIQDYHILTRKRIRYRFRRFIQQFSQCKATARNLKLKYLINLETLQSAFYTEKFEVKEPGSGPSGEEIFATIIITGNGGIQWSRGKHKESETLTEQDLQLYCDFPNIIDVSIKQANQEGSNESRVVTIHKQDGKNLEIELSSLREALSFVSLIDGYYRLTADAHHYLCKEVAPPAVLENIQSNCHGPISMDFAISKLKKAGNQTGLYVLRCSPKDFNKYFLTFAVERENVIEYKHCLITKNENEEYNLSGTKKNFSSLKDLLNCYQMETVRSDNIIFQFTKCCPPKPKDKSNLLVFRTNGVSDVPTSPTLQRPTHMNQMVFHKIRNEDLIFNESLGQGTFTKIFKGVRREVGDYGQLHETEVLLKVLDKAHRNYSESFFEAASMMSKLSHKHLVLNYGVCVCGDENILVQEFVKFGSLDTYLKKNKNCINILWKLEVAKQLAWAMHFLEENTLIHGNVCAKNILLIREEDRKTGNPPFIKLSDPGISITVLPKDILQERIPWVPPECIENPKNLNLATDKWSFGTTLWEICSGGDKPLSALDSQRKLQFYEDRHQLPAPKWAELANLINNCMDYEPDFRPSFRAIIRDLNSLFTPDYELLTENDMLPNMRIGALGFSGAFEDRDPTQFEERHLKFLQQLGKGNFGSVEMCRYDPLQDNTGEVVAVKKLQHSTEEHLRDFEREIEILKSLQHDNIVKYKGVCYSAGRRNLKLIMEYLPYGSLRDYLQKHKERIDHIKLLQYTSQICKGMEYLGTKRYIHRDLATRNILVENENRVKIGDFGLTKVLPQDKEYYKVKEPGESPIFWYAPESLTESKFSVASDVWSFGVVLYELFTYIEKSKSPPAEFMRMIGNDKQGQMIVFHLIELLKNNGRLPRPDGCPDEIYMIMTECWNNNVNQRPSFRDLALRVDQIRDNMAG
# experiment description: Kinobeads assay, JAK2
# applied conditions: mixed Molt4/Ramos cell lysate, dot blot detection
pIC50: −log10 of the molar value.

Quick one: pIC50 for CNS(=O)(=O)c1ccc(-n2ncc3cnc(Nc4cnn(C)c4)nc32)cc1 [Example 40] ? 5.00 to 6.00

// next record Cn1nc(Nc2ncc3cnn(Cc4ccccc4F)c3n2)cc1C(=O)O [Example 236] ≤ 5.00

Another molecule to check: OCCn1cc(Nc2ncc3cnn(Cc4c(F)c(F)cc(F)c4F)c3n2)cn1 [Example 196] 6.00 to 7.00

Same thing, different molecule: Cn1cc(Nc2ncc3cnn(-c4ccc(NS(C)(=O)=O)cc4)c3n2)cn1 [Example 18] 6.00 to 7.00

Can you check Fc1ccc(F)c(Cn2ncc3cnc(Nc4cnn(CC(F)F)c4)nc32)c1 [Example 129] next? 6.00 to 7.00

What would you report for CC(C)n1cc(Nc2ncc3cnn(Cc4ccccc4C#N)c3n2)cn1 [Example 12] ? 5.00 to 6.00

###

Items are presented alongside their recorded pIC50.
# tested on: JAK3 (Homo sapiens)
# Construct: endogenous in cells
# Sequence (P52333 1-1124): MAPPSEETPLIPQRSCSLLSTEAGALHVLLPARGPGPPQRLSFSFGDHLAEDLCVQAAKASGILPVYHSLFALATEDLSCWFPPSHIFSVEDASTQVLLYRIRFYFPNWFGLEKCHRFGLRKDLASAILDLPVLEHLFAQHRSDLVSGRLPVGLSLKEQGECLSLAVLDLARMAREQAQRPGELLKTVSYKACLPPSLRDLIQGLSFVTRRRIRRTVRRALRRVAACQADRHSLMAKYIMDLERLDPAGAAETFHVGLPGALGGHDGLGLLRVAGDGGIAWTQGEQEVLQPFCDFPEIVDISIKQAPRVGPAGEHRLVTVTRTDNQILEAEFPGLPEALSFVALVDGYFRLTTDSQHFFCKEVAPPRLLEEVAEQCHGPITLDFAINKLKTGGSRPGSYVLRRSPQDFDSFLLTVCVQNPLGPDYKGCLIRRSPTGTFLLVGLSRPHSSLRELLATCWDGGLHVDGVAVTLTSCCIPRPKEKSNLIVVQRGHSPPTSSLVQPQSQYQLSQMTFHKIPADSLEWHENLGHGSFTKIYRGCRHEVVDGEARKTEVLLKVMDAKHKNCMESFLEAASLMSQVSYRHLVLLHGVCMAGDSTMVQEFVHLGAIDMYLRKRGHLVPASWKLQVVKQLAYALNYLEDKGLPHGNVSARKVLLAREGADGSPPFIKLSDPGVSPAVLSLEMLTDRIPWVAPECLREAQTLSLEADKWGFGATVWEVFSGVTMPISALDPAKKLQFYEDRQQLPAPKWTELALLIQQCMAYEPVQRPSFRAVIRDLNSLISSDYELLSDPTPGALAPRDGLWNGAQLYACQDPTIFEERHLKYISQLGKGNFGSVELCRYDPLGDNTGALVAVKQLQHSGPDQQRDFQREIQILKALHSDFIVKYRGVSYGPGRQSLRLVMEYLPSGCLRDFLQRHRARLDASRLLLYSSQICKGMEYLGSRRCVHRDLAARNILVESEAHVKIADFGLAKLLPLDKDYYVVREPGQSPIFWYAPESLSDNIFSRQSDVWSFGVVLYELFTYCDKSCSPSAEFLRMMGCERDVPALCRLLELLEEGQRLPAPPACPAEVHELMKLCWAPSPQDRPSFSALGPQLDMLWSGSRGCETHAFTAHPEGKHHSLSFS
# experiment description: Kinobeads assay, JAK3
# applied conditions: mixed Molt4/Ramos cell lysate, dot blot detection
# Method: The compounds of the present invention as described in the previous examples were tested in a Kinobeads™ assay as described for ZAP-70 (WO-A 2007/137867). […] Bound proteins were then eluted and the presence of JAK2 and JAK3 was detected and quantified using specific antibodies in a dot blot procedure and the Odyssey infrared detection system. Dose response curves for individual kinases were generated and IC50 values calculated. […]
pIC50: −log10 of the molar value.

Examples with their reported pIC50 follow.
Cc1cc(-n2ncc3cnc(Nc4cnn(C)c4)nc32)ccc1F: 6.00 to 7.00
N#Cc1ccccc1Cn1ncc2cnc(Nc3cnn(CCO)c3)nc21: > 7.00

Would you kindly share the measured pIC50 for `Cn1cc(Nc2ncc3cnn(Cc4cccc(F)c4C#N)c3n2)cn1` ? 6.00 to 7.00

Same lookup for `Cn1cc(Nc2ncc3cnn(-c4ccc(S(C)(=O)=O)cc4)c3n2)cn1` , please. 6.00 to 7.00

Another molecule to check: `CS(=O)(=O)n1cc(Nc2ncc3cnn(Cc4ccccc4F)c3n2)cn1` 6.00 to 7.00

###

# tested on: JAK3 (Homo sapiens)
# Construct: endogenous in cells
# experiment description: Kinobeads assay, JAK3
# applied conditions: mixed Molt4/Ramos cell lysate, dot blot detection
reported endpoint: IC50

COCCCOc1cccc(Cn2ncc3cnc(Nc4cnn(C)c4)nc32)c1: 100 to 1000 nM
CN(C)c1cccc(Cn2ncc3cnc(Nc4cnn(C)c4)nc32)n1: 100 to 1000 nM
COc1ccc(F)cc1Cn1ncc2cnc(Nc3cnn(C)c3)nc21: < 100 nM

// lookup IC50 | system=JAK3 (Homo sapiens) | key= `Cn1cc(Nc2ncc3cnn(-c4cccc(C(=O)NCCO)c4)c3n2)cn1` 100 to 1000 nM

Also, `CNC(=O)c1cc(Nc2ncc3cnn(Cc4ccccc4F)c3n2)c[nH]1` please. < 100 nM

Try the compound `O=C1CNCCN1c1ccc(F)c(Cn2ncc3cnc(Nc4cnn(CCO)c4)nc32)c1F` < 100 nM

###

# tested on: JAK3 (Homo sapiens, UniProt P52333)
# Construct: endogenous in cells
# experiment description: Kinobeads assay, JAK3
# applied conditions: mixed Molt4/Ramos cell lysate, dot blot detection
IC50: recorded values

Known results for compounds:
CCCn1cc(Nc2ncc3cnn(Cc4ccccc4C#N)c3n2)c(C)n1: 100 to 1000 nM
Cn1cc(Nc2ncc3cnn(Cc4ccccc4Oc4ccccc4)c3n2)cn1: 100 to 1000 nM
Fc1ccccc1Cn1ncc2cnc(Nc3c[nH]nc3Cl)nc21: 100 to 1000 nM
Cn1cc(Nc2ncc3cnn(-c4ccc(NS(C)(=O)=O)cc4)c3n2)cn1: < 100 nM
Cn1cc(Nc2ncc3cnn(Cc4cccc(NS(C)(=O)=O)c4)c3n2)cn1: < 100 nM
Cn1cc(Nc2ncc3cnn(CCc4cccc(F)c4)c3n2)cn1: 100 to 1000 nM

We next turn to a different compound, shown below.
Observed IC50 on JAK3 (Homo sapiens, UniProt P52333) for `Cn1cc(Nc2ncc3cnn(-c4ccc(S(=O)(=O)NCCO)cc4)c3n2)cn1` , please. 100 to 1000 nM

###

# tested on: JAK2 (Homo sapiens)
# Construct: endogenous in cells
# experiment description: Kinobeads assay, JAK2
# applied conditions: mixed Molt4/Ramos cell lysate, dot blot detection
The entries below come with measured IC50 values attached.

Sample answers from the record:
COc1ccccc1Cn1ncc2cnc(Nc3cnn(C)c3)nc21 [Example 87]: 1 to 10 µM
Cn1cc(Nc2ncc3cnn(Cc4cccc(OC(F)(F)F)c4)c3n2)cn1 [Example 86]: ≥ 10 µM
Fc1ccccc1Cn1ncc2cnc(Nc3cn[nH]c3)nc21 [Example 88]: 1 to 10 µM
Cn1cc(Nc2ncc3cnn(Cc4ccc(F)cc4)c3n2)cn1 [Example 99]: ≥ 10 µM

# input for lookup
Would you mind telling me what IC50 value was observed for Cc1c(O)cccc1Cn1ncc2cnc(Nc3cnn(C)c3)nc21 [Example 179] ? 1 to 10 µM

###

Reported IC50 by item:
# tested on: JAK3 (Homo sapiens, UniProt P52333)
# Construct: endogenous in cells
# experiment description: Kinobeads assay, JAK3
# applied conditions: mixed Molt4/Ramos cell lysate, dot blot detection

Example entries begin here.
Cn1cc(Nc2ncc3cnn(Cc4ccncc4F)c3n2)cn1: 0.1 to 1 µM
CC(C)(O)Cn1cc(Nc2ncc3cnn(Cc4ccccc4F)c3n2)cn1: < 0.1 µM
CC(C)S(=O)(=O)Nc1ccccc1Cn1ncc2cnc(Nc3cnn(C)c3)nc21: < 0.1 µM

Item under review: `C[C@@H]1CN(c2cccc(Cn3ncc4cnc(Nc5cnn(C)c5)nc43)c2)C[C@H](C)O1` . Reported IC50? 0.1 to 1 µM

Also `Cc1ccccc1Cn1ncc2cnc(Nc3cnn(C)c3)nc21` ? < 0.1 µM

Now the molecule `Cn1cc(Nc2ncc3cnn(-c4ccc(NS(C)(=O)=O)cn4)c3n2)cn1` 0.1 to 1 µM

###

# tested on: JAK2 (Homo sapiens, UniProt O60674)
# Construct: endogenous in cells
# experiment description: Kinobeads assay, JAK2
# applied conditions: mixed Molt4/Ramos cell lysate, dot blot detection
pIC50: −log10 of the molar value.
reported endpoint: pIC50

Here is how some molecules turned out for pIC50.
Cn1cc(Nc2ncc3cnn(-c4ccc(NS(C)(=O)=O)cn4)c3n2)cn1: 5.00 to 6.00
Cc1ccc(F)cc1Cn1ncc2cnc(Nc3cnn(C)c3)nc21: 6.00 to 7.00
Cn1cc(Nc2ncc3cnn(Cc4cccc(C5=CCOCC5)c4)c3n2)cn1: ≤ 5.00
COc1nn(CCO)cc1Nc1ncc2cnn(Cc3cccc(F)c3F)c2n1: 5.00 to 6.00
Cn1cc(Nc2ncc3cnn(Cc4cccc(OCC(N)=O)c4)c3n2)cn1: 5.00 to 6.00

Fill in the recorded pIC50 for this molecule, with JAK2 (Homo sapiens, UniProt O60674) as test system: `Cc1c(Nc2ncc3cnn(Cc4ccccc4C#N)c3n2)cnn1C` ≤ 5.00
